Target: T1, ATX1 AXH (residues A567-K689 of human ATX1) (human)
T1 chain: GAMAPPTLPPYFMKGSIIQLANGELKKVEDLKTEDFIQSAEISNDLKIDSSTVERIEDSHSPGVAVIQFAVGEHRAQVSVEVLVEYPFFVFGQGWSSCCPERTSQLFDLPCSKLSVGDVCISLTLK
Experiment: ITC
Some binders, each annotated with its measured Kd.
Your answer is read as nM, so omit the unit and give the number.

Please review the entries below; each comes with its answer.
1. VAPWHSLVPFLAPSQ [L-CICp with F35 mutated to alanine] : 30
2. VFPWHSLVPFLAPSQ [L-CICp] : 30
3. AFPWHSLVPFLAPSQ [L-CICp with V34 mutated to alanine] : 20

Now examine the next entry.
query: Recorded Kd for VFPWHSLAPFLAPSQ [L-CICp with V41 mutated to alanine] , please?
result: 70
